# TEST_SYSTEM: P5CDH (Δ1-pyrroline-5-carboxylate dehydrogenase) (Staphylococcus aureus)
# Construct: gene rocA
# ASSAY_NAME: bio-layer interferometry (Octet NTA, immobilised P5CDH)
# Format: binding
pKd: −log10 of the molar value.
TEST_READOUT: pKd

CC1=C(O)C(=O)C=C2C1=CC=C1[C@@]2(C)CC[C@@]2(C)[C@@H]3C[C@](C)(C(=O)O)CC[C@]3(C)CC[C@]12C [celastrol] : 4.26

----------
# TEST_SYSTEM: P5CDH (Δ1-pyrroline-5-carboxylate dehydrogenase) (Staphylococcus aureus, UniProt Q2FDV3)
TEST_READOUT: IC50 (µM)

CC1=C(O)C(=O)C=C2C1=CC=C1[C@@]2(C)CC[C@@]2(C)[C@@H]3C[C@](C)(C(=O)O)CC[C@]3(C)CC[C@]12C [celastrol] : 10.9
